Test system: 786-0 renal
Experimental Protocol: NCI-60 one-dose screen, 48 h (100 = growth as untreated, 0 = no growth, -100 = all killed)
Cond: 10 µM unless noted
About 83,000 compounds went through this panel and 20% of them were active in at least one assay; those are over-represented in the sample as a whole.
Consider the following compounds; for each one, report its growth.
Answers are plain numbers, in %.

Solved entries (count: 5):
Compound: O=C(Cn1cc(CN2CCN(c3ccnc4cc(Cl)ccc34)CC2)nn1)Nc1cccc([N+](=O)[O-])c1
Endpoint Value: 88
--
Compound: COc1ccc(C(c2cc(OC)c(OC)c(OC)c2)n2ccnc2)cc1O (stereo not drawn)
Endpoint Value: 20
--
Compound: Cc1ccc(-c2nc(C#N)c(S(=O)(=O)N(C)C)o2)cc1
Endpoint Value: 96.4
--
Compound: COc1cc2cc(NCc3ccncc3)nc(C)c2cc1OC
Endpoint Value: 71.8
--
Compound: C=C[C@]1(C)C=C2CC[C@@H]3C(C)(C)C(=O)CC[C@@]3(C)[C@@H]2CC1
Endpoint Value: 98.6

Would you be so kind as to report growth for each listed record?
1. COc1ccc(-c2nn3c(-c4cc(F)c(Cl)cc4Cl)nnc3s2)cc1
2. O=c1oc2c(Br)cc(Br)cc2cc1-c1cc(-c2ccc(-c3cc(-c4cc5cc(Br)cc(Br)c5oc4=O)nc(-c4cc5cc(Br)cc(Br)c5oc4=O)c3)cc2)cc(-c2cc3cc(Br)cc(Br)c3oc2=O)n1
3. OCc1cc(CN2CCCCC2)c(O)c2ncccc12

Result:
1: 46.2; 2: 111; 3: 57.9
